Provenance of the data: ChEMBL document CHEMBL2331385

- system.name: Botulinum neurotoxin type A (Clostridium botulinum, UniProt P0DPI0)
- Sequence (P0DPI0 2-448 limits assumed): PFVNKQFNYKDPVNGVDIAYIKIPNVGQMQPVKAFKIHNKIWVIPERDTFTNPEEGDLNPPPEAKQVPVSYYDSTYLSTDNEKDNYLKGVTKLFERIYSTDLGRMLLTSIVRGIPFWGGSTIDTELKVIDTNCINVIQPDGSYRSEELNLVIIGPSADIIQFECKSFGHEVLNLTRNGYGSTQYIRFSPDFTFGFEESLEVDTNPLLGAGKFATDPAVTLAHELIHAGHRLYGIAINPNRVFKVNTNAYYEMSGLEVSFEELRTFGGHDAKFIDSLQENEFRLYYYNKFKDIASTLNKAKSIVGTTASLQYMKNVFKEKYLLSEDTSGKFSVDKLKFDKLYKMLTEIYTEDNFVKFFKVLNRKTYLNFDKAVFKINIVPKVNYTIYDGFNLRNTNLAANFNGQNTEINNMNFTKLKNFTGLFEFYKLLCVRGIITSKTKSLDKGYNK
property: pKi
Remember, pKi is on a log scale: it is -log10 of the molar concentration.

# example entries with known answers
Ask | Param readout= pKi; system= Botulinum neurotoxin type A (Clostridium botulinum, UniProt P0DPI0); entry= COc1ccc(C23CC4CC(CC(CC(=O)NO)(C4)C2)C3)cc1 ; returns value.
Reply | 6.89

Ask | Param readout= pKi; system= Botulinum neurotoxin type A (Clostridium botulinum, UniProt P0DPI0); entry= O=C(CC12CC3CC(C1)CC(c1ccccc1)(C3)C2)NO ; returns value.
Reply | 6.12

Ask | Param readout= pKi; system= Botulinum neurotoxin type A (Clostridium botulinum, UniProt P0DPI0); entry= O=C(CC12CC3CC(CC(C3)C1)C2)NO ; returns value.
Reply | 6.34

Continuing:
Ask | Param readout= pKi; system= Botulinum neurotoxin type A (Clostridium botulinum, UniProt P0DPI0); entry= O=C(CC12CC3CC(C1)CC(c1ccc(Cl)cc1)(C3)C2)NO ; returns value.
Reply | 7.57

Ask | Param readout= pKi; system= Botulinum neurotoxin type A (Clostridium botulinum, UniProt P0DPI0); entry= O=C(CC12CC3CC(C1)CC(c1ccc(Br)cc1)(C3)C2)NO ; returns value.
Reply | 7.57

Ask | Param readout= pKi; system= Botulinum neurotoxin type A (Clostridium botulinum, UniProt P0DPI0); entry= NCCCCCCCNC(=O)c1cc(CCC(=O)NO)c(CCC(O)(c2ccccc2)c2ccccc2)n1Cc1ccccc1 ; returns value.
Reply | 6.12

Ask | Param readout= pKi; system= Botulinum neurotoxin type A (Clostridium botulinum, UniProt P0DPI0); entry= O=C(C[C@@H](CCO)c1ccc(Cl)cc1Cl)NO ; returns value.
Reply | 6.80
